compounds and their reported IC50
test-target: SF3b complexes (Homo sapiens, UniProt O75533+Q7RTV0)
Construct: endogenous in cells; host or cells: Nuclear extracts; A HeLa S3 extract preparation is described for the in vitro splicing assay
procedure-details: Scintillation proximity assay (SPA) with [3H]-labelled pladienolide probe
Format: binding
conditions: SF3B1 (WT); geometric mean; read-out: SPA-ATS GMean IC50 (nM) SF3B1 (WT)
Report as a plain number; the unit nM is understood.

{"columns": ["compound", "unit-spec", "numeric-result"],
 "data": [
  ["C/C(=C\\c1cc(F)cc(N2CCN(C(=O)Cn3cccn3)CC2)c1)[C@H]1OC(=O)C[C@H](O)CC[C@H](C)[C@@H](OC(=O)N2CCN(Cc3cccnc3)CC2)/C=C/[C@@H]1C", "nM", 21.8],
  ["CCNS(=O)(=O)c1cccc(/C=C(\\C)[C@H]2OC(=O)CC(O)CCC(C)[C@@H](OC(=O)N3CCN(C)CC3)/C=C/[C@@H]2C)c1 (stereo in doubt)", "nM", 4.35]
]}

IN: Query: IC50; subject: "C/C(=C\c1cc(F)cc(N2CCOCC2)c1)[C@H]1OC(=O)C[C@H](O)CC[C@H](C)[C@@H](OC(=O)NCCCN2CCOCC2)/C=C/[C@@H]1C"
OUT: 20.5
